Reference for the values: the nanobody polyreactivity screen of Harvey et al. (2022)

test: yeast display, Sf9 membrane polyspecificity reagent, FACS + sequencing; frameworks hold sequencing errors
measurement-type: polyreactivity (PSR sort gate)

- QVQLVESGGGLVQAGGSLRLSCAASGSTFYAYAMGWYRQAPGKERELVAAINGSGGSTNYADSVKGRFTISRDNAKHTDYLQMNSQKPEDTAVYYCAADWSRRLYDYWGQGTQVTVSS: low polyreactivity
- QVQLVESGGGLVQAGGSLRLSCAASGSTKYYVMGWYRQAPGKERELVAAISRGSSTYYADSVKGRFTISRDNAKNTVYLQMNSLKPEDTAVYYCAARGPWQAPYDYWGQGTQVTVSS: high polyreactivity
- QVQLVESGGGLVQAGGSLRLSCAASGLSFQSYAMGWYRQAPGKERELVAAISRRSGSTYYADSVKGRFTISRDNAKNTVYLQMNSLKPEDTAVYYCTTRRGERGYWGQGTQVTVSS: high polyreactivity
- QVQLVESGGGLVQAGGSLRLSCAASGRTFGRYAMGWYRQAPGKERELVARISFSGGSTHYADSVKGRFTISRDNAKNTVYLQMNSLKPEDTAVYYCNTDWYRNWGKPYYYWGQGTQVTVSS: high polyreactivity
- QVQLVESGGGLVQAGGSLRLSCAASGLIFSSYAMGLNRQAPGKEREFVAAISRTGGITYYADSVKGRFTISRDYAKNTVYLQMNSLKPEDTAVYYCNARWYDPTLKVGYWGQVTQVTVSS: high polyreactivity
- QVQLVESGGGLVQAGGSLRLSCAASGRIFSNNAMGWYRQAPGKERELVAAITNSGGSTYYADSVKGRFTISRDNAKNTVYLQMNSLKPEDTAVYYCAADHLSVQYDVYWTYYYWGQGTQVTVSS: low polyreactivity
- QVQLVESGGGLVQAGGSLRLSCAASGGTFNRYAMGWYRQAPGKERELVAAISNGGGRTYYADSVKGRFTISRDNAKNTVYLQMNSLKPEDTAVYYCAKDLTRTSYRSAFDYWGQGTQVTVSS: high polyreactivity
- QDQLVESRGGEVQAGGSRRLRCAASGLTFLYNAMGWYRQAPGKERELVAAISQSAGSTYYADSVKGRFTISRDTAKNTVYLQLNSLKPEETAVYYFAADWDTPDLVIYDYWGQGTQVTLSS: low polyreactivity
- QVQIVESGGGLVQAGGSLRLSCAASGRTFRTYAMGWSRPAPGKEREMVAAIRSNAGSTYYADSVKGRFTISRDNAKNTVYLQMHSLKPEDTAVYYCAKSYRSSRRYNYWGQGTQVTVSS: high polyreactivity
- QVQLVESGGGLVQAGGSLRLSCAASGFTFFMYAMGGDRQAPGKEREFVASITGSGGSTYYADSVKGRFTISRDTAKNSVYLQMNSLKPEDTAVYYCNKLSYGRSGYWGQGTQVTVSS: high polyreactivity
- QVQLVESGGGLVQAGGSLRLSCAASGYIFTYTMGWYRQAPGKERELVAAISKSGGSTYYADSVKGRFTLSRDNAKNTVYLQMNSLKPEDTAVYYCARRGRYYLYTDDYDYWGQGTQVTVSS: high polyreactivity
